Test system: Akkermansia muciniphila ATCC BAA-835
ASSAY_NOTES: MIC by CLSI broth microdilution, type strain
Format: cell-based
RUN_CONDITIONS: ATCCBAA835, test strain ATCC BAA-835
The following molecules are shown together with reported MIC values.

Known results for molecules:
CO/N=C(\C(=O)N[C@@H]1C(=O)N2C(C(=O)O)=CCS[C@H]12)c1csc(N)n1 : 2 µg/mL
Cc1ncc([N+](=O)[O-])n1CCO : ≤ 0.25 µg/mL
COc1c(N2C[C@@H]3CCCN[C@@H]3C2)c(F)cc2c(=O)c(C(=O)O)cn(C3CC3)c12 : > 32 µg/mL
O=C(N[C@H](CO)[C@H](O)c1ccc([N+](=O)[O-])cc1)C(Cl)Cl : 4 µg/mL

Value wanted: MIC (Akkermansia muciniphila ATCC BAA-835) of entry `CCC[C@@H]1C[C@@H](C(=O)N[C@@H]([C@H]2O[C@H](SC)[C@H](O)[C@@H](O)[C@H]2O)[C@H](C)Cl)N(C)C1`
≤ 0.125 µg/mL

Now this one: `C[C@@H](O)[C@H]1C(=O)N2C(C(=O)O)=C(S[C@@H]3CN[C@H](C(=O)N(C)C)C3)[C@H](C)[C@H]12`
1 µg/mL

Data credit: patent US12636319B2
